tested on: HepG2-GM130-SQSTM1; assay: lowest phenotypically active concentration; higher = less potent; conditions: treatment time: 24 h
The compounds listed here are annotated with their lowest phenotypically active concentration.
QUANTITY_KIND: lowest phenotypically active concentration (µM)

[[record]]
compound = "CCc1nc(-c2cccc(C)c2)c(-c2ccnc(NC(=O)c3ccccc3)c2)s1"
unit_abbreviation = "µM"
reading_qualifier = "="
data_value = 1

[[record]]
compound = "COc1c(C)cnc(Cn2cnc3c(Cl)nc(N)nc32)c1C"
unit_abbreviation = "µM"
reading_qualifier = "≤"
data_value = 0.3

[[record]]
compound = "CCN1CCN(C(c2cccnc2)c2cc(Cl)c3cccnc3c2O)CC1 (stereo not drawn)"
unit_abbreviation = "µM"
reading_qualifier = "="
data_value = 9

[[record]]
compound = "CC(=O)O[C@@]12CO[C@@H]1C[C@H](O)[C@@]1(C)C(=O)[C@H](O)C3=C(C)[C@@H](OC(=O)[C@H](O)[C@@H](NC(=O)OC(C)(C)C)c4ccccc4)C[C@](O)([C@@H](OC(=O)c4ccccc4)[C@H]21)C3(C)C"
unit_abbreviation = "µM"
reading_qualifier = "≤"
data_value = 0.3

[[record]]
compound = "CN1c2ccccc2C(=O)N2CCc3c([nH]c4ccccc34)[C@H]21"
unit_abbreviation = "µM"
reading_qualifier = "="
data_value = 3

[[record]]
compound = "Cc1cc2c(F)c(Oc3ncnn4cc(OC[C@@H](C)O)c(C)c34)ccc2[nH]1"
unit_abbreviation = "µM"
reading_qualifier = "="
data_value = 9

[[record]]
compound = "COc1cc(-c2cn(C)c(=O)c3cnccc23)c(OC)cc1CN(C)C"
unit_abbreviation = "µM"
reading_qualifier = "="
data_value = 9

[[record]]
compound = "CCC(=O)N1CCN(c2ccc(-n3c(=O)ccc4cnc5ccc(-c6cnc7ccccc7c6)cc5c43)cc2C(F)(F)F)CC1"
unit_abbreviation = "µM"
reading_qualifier = "≤"
data_value = 0.3

